measured-on: Papain (Carica papaya) (UniProt P00784)
Sequence (P00784 whole entry, looked up): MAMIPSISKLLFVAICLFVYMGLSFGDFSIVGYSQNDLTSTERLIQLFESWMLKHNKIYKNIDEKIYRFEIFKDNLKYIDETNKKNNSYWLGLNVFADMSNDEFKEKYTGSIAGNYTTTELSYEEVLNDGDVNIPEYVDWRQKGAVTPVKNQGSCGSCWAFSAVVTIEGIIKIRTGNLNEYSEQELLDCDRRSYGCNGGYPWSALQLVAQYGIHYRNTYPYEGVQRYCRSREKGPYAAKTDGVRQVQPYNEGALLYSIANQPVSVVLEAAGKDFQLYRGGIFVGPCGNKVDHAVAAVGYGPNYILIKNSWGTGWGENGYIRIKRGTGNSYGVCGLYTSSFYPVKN
method-description: Primary qHTS assay for inhibitors of the protease papain (AID 1645873);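 also: papain turnover of Z-FR-AMC read as the AMC fluorescence gain over 10 min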
applied-conditions: papain Z-FR-AMC cleavage, AMC fluorescence; series mostly up to 49.8 µM
Records with an inconclusive call do not appear. Calls of active or inactive are those of the source. Calls follow the shape of the dose curve; as a rule, active = well fitted inhibition curve with a large enough effect; inconclusive = small, poorly fitted or top-dose-only effect; inactive = no such curve, though single readings can be large or run the other way.
parameter-measured: outcome

Observe how each entry below is paired with its result.
molecule: CN(C)CCOC(c1ccccc1)c1ccccc1
outcome: inactive
//
molecule: CCOC(=O)C(C)(C)Oc1ccc(Cl)cc1
outcome: inactive
//
molecule: CC(C)NCC(O)COc1ccc(CCOCC2CC2)cc1 (stereo not given)
outcome: inactive
//
molecule: NC12CC3CC(CC(C3)C1)C2
outcome: inactive
//
molecule: CN(CCOc1ccc(NS(C)(=O)=O)cc1)CCc1ccc(NS(C)(=O)=O)cc1
outcome: inactive
//
molecule: O=C(CCCN1CCC(O)(c2ccc(Cl)cc2)CC1)c1ccc(F)cc1
outcome: inactive
//
molecule: CC(C)NCC(O)c1ccc(O)c(O)c1 (stereo not given)
outcome: inactive
//
molecule: Clc1ccccc1C(c1ccccc1)(c1ccccc1)n1ccnc1
outcome: inactive

Give me outcome for each of these molecules, listed below.
1. O=C(c1ccc(OCCN2CCCCC2)cc1)c1c(-c2ccc(O)cc2)sc2cc(O)ccc12
2. Clc1ccc(C(c2ccccc2Cl)C(Cl)Cl)cc1 (stereo not given)
3. Clc1ccc2nsnc2c1NC1=NCCN1

inactive
inactive
inactive

Report outcome for every entry below.
1. CN(C)CCC=C1c2ccccc2C=Cc2ccccc21
2. CC(C)(C)C(=O)Oc1ccc(S(=O)(=O)Nc2ccccc2C(=O)NCC(=O)O)cc1
3. C[C@](N)(Cc1ccc(O)c(O)c1)C(=O)O
4. O=c1c(-c2ccc(O)cc2)coc2cc(O)cc(O)c12

1: inactive; 2: inactive; 3: inactive; 4: inactive

----------
System: CP297
method-description: qHTS profiling for inhibitors of Plasmodium falciparum proliferation (AID 504749); also: nearly all actives have a fitted effect of over 60% in size; also: potency is read from the fitted curve at half-maximal effect
applied-conditions: P. falciparum in erythrocytes, SYBR Green DNA, 72 h; series mostly up to 28.7 µM
Results filed as inconclusive are left out. Activity calls are given as the source filed them. Calls follow the shape of the dose curve; as a rule, active = well fitted inhibition curve with a large enough effect; inconclusive = small, poorly fitted or top-dose-only effect; inactive = flat fitted curve, though single readings scatter.
parameter-measured: Potency

compound: NCCc1cnc[nH]1
Potency: inactive

compound: N[C@@H](Cc1c[nH]c2ccc(O)cc12)C(=O)O
Potency: inactive

compound: Cn1c(=O)c2c(ncn2C)n(C)c1=O
Potency: inactive

compound: O=C1c2c(O)ccc(O)c2C(=O)c2c(NCCNCCO)ccc(NCCNCCO)c21
Potency: 6.42 µM (active)

compound: CC(=O)OCC(CCn1cnc2cnc(N)nc21)COC(C)=O
Potency: inactive

# return Potency for each item in the list
1. CN(Cc1cnc2nc(N)nc(N)c2n1)c1ccc(C(=O)N[C@@H](CCC(=O)O)C(=O)O)cc1
2. Cc1cn([C@H]2C=C[C@@H](CO)O2)c(=O)[nH]c1=O
3. COc1ccccc1OCC(O)CN1CCN(CC(=O)Nc2c(C)cccc2C)CC1 (stereo unspecified)
4. CN(C)c1nc(N(C)C)nc(N(C)C)n1
5. CC(C)(C)C(=O)Oc1ccc(S(=O)(=O)Nc2ccccc2C(=O)NCC(=O)O)cc1

1: inactive; 2: inactive; 3: inactive; 4: inactive; 5: inactive

Potency reading for `Clc1ccccc1C(c1ccccc1)(c1ccccc1)n1ccnc1` : 0.455 µM (active)

----------
method-description: qHTS for Activators of Parkin Expression: LOPAC Validation Assay (FLuc Reporter) (AID 720573)
applied-conditions: Cell line, PRKN promoter firefly luciferase reporter; series mostly up to 46.1 µM
Inconclusive results are not listed. Active and inactive are the calls of the source. The call rests on the fitted dose curve; in most records, active means well fitted activation curve with a large enough effect; inconclusive means small, poorly fitted or top-dose-only effect; inactive means no such curve, though single readings can be large or run the other way.
parameter-measured: outcome

Look over these answered cases.
compound: CN(C)CCCN1c2ccccc2CCc2ccc(Cl)cc21
outcome: inactive
--
compound: OCCN1CCN(CCCN2c3ccccc3Sc3ccc(C(F)(F)F)cc32)CC1
outcome: inactive
--
compound: COc1ccccc1OCC(O)CN1CCN(CC(=O)Nc2c(C)cccc2C)CC1 (configuration not stated)
outcome: inactive
--
compound: C[C@](N)(Cc1ccc(O)c(O)c1)C(=O)O
outcome: inactive
--
compound: NC12CC3CC(CC(C3)C1)C2
outcome: inactive

Please go through the list and note outcome for each compound.
1. COc1ccccc1N1CCN(CC(O)COc2cccc3ccccc23)CC1 (configuration not stated)
2. NCCS(=O)(=O)O
3. CN1CCC(=C2c3ccccc3C=Cc3ccccc32)CC1
4. N[C@@H](Cc1c[nH]c2ccc(O)cc12)C(=O)O
5. Clc1ccccc1C(c1ccccc1)(c1ccccc1)n1ccnc1
6. CCCCc1oc2ccccc2c1C(=O)c1cc(I)c(OCCN(CC)CC)c(I)c1

1: inactive; 2: inactive; 3: inactive; 4: inactive; 5: inactive; 6: inactive

Lab note: `Cc1cn([C@H]2C=C[C@@H](CO)O2)c(=O)[nH]c1=O` gave outcome of inactive
